# Tested on: VDR:RXRa (NR concentration 270 nM, RXRa partner concentration 90 nM)
# TEST_PROTOCOL: PBM binding z-score (relative to random genomic background probes); higher = stronger binding; sequences stand for … in GC…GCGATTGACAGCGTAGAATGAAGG
Rule: Satisfied for PBM binding z-score not less than 2, Not satisfied for anything less.

[[record]]
sequence_entry = "TGTATGAGGTTATAAGATCAGGGAACGTTGCAAA"
study_target = "VDR:RXRa (NR concentration 270 nM, RXRa partner concentration 90 nM)"
classification = "Not satisfied"

[[record]]
sequence_entry = "CCTAGCAGGCTAATCTGGGTCACTCAAGGCTTGA"
study_target = "VDR:RXRa (NR concentration 270 nM, RXRa partner concentration 90 nM)"
classification = "Not satisfied"

[[record]]
sequence_entry = "GCTTACGGGTCAAAGGTTATAGCCTGAATAGAAT"
study_target = "VDR:RXRa (NR concentration 270 nM, RXRa partner concentration 90 nM)"
classification = "Satisfied"

[[record]]
sequence_entry = "GCCTATAGGTAATACAAGGTGAAAGTCCGATTGT"
study_target = "VDR:RXRa (NR concentration 270 nM, RXRa partner concentration 90 nM)"
classification = "Not satisfied"

[[record]]
sequence_entry = "CGAATTAGGTCATTGACAGGACAGTGAATAGTAA"
study_target = "VDR:RXRa (NR concentration 270 nM, RXRa partner concentration 90 nM)"
classification = "Satisfied"

[[record]]
sequence_entry = "TCATAAAGGTAAAAGGTGAAAGTCGGTGTGGTAA"
study_target = "VDR:RXRa (NR concentration 270 nM, RXRa partner concentration 90 nM)"
classification = "Not satisfied"

[[record]]
sequence_entry = "ACTTACGGGTCACCGAGGTTATAGCACGCGTATA"
study_target = "VDR:RXRa (NR concentration 270 nM, RXRa partner concentration 90 nM)"
classification = "Satisfied"

[[record]]
sequence_entry = "CGTCCAAGGTCAATGCTAGGGCAGTGAAAGCATT"
study_target = "VDR:RXRa (NR concentration 270 nM, RXRa partner concentration 90 nM)"
classification = "Satisfied"


---

# Test system: LXRa:RXRa (NR concentration 270 nM, RXRa partner concentration 90 nM)
# TEST_PROTOCOL: PBM binding z-score (relative to random genomic background probes); higher = stronger binding; sequences stand for … in GC…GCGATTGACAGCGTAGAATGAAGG
Reported PBM binding z-score values are given for each entry in this list.
MEASURED_ENDPOINT: PBM binding z-score

[[record]]
sequence_entry = "CCGACTGGGGCAAAGGTTATCATACTCAGTACGA"
numeric_value = 1.66

[[record]]
sequence_entry = "CCGACTGGGGCATAAGGTTACCGTAAGCCAGCCC"
numeric_value = 0.933

[[record]]
sequence_entry = "GATACAGGGTCAGCTAAAGGCCAGAGTATGGAAA"
numeric_value = 2.74

[[record]]
sequence_entry = "CTCGAAAGGTCGGTGGAGGTGAGTATACGGATAA"
numeric_value = 1.77

[[record]]
sequence_entry = "CCTAGCAGGACAATCTGGGTCACTCAAGGCTTGA"
numeric_value = 0.686

[[record]]
sequence_entry = "CAGCCTAGGTCAGGGTCAGTATAGGAGGAACGTT"
numeric_value = 2.28

[[record]]
sequence_entry = "TCAGACAGGTGAAGGTGACTCAGGTACGCAGTCG"
numeric_value = 0.409

[[record]]
sequence_entry = "CTCGAAAGGTCGTGCTCAGGTGAGTAAACCAAAC"
numeric_value = 3.87

[[record]]
sequence_entry = "CCTTTCGGGTCAAGGTTATAGCACGGGTGGTACG"
numeric_value = 3.85


Every entry's value here was drawn from the supplement of paper PMC6555819.
